Molecular target: furin, P09958;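 further: purified furin at 1:10 enzyme:substrate in 50 mM HEPES pH 7.5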
Sequence (P09958 whole entry): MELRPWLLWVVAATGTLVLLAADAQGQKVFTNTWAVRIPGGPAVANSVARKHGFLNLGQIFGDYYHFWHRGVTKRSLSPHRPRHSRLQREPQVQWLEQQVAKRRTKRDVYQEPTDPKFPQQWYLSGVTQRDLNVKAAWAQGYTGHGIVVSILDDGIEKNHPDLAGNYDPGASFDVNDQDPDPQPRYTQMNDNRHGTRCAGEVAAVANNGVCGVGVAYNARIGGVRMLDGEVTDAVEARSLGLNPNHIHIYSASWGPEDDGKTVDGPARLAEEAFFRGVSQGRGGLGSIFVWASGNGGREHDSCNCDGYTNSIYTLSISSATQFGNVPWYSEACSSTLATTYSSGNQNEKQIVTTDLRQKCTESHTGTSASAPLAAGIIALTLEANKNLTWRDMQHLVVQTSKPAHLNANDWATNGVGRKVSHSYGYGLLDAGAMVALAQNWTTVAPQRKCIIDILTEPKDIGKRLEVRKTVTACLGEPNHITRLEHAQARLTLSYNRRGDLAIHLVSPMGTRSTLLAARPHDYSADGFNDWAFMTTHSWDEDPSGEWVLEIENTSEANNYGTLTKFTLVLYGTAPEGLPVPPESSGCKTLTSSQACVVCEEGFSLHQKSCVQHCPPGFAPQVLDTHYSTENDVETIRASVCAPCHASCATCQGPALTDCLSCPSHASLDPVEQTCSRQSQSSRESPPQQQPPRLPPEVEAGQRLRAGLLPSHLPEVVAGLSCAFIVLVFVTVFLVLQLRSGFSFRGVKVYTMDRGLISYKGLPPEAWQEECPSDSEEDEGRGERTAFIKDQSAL
Experiment: furin cleavage Z-score vs untreated control; higher = more cleavage, active = 3.5 or more, inactive = 1 or less, 8 variable residues between constant flanks
Settings: 15 min
This is one part of the list. No count for the full screen is at hand.
Could you please report measured furin cleavage Z-score for the items listed next?
Numbers only.

Below are worked cases with known answers.
CASHARPRWIAGNASASA [HC1653]    1.44
CARSHRDTATAGNASASA [FS-1791]    1.01
CARSHRMRRHAGNASASA [FS-1272]    13.7

# ---- query sequence ----
Note to self: furin cleavage Z-score recorded for CAFTFSPRRHAGNASASA [HC306] was -0.113
